The measured values listed here are drawn from patent US20260285859A1.

subject-of-test: PKMYT1 (Homo sapiens, UniProt Q99640)
Sequence (Q99640 whole entry): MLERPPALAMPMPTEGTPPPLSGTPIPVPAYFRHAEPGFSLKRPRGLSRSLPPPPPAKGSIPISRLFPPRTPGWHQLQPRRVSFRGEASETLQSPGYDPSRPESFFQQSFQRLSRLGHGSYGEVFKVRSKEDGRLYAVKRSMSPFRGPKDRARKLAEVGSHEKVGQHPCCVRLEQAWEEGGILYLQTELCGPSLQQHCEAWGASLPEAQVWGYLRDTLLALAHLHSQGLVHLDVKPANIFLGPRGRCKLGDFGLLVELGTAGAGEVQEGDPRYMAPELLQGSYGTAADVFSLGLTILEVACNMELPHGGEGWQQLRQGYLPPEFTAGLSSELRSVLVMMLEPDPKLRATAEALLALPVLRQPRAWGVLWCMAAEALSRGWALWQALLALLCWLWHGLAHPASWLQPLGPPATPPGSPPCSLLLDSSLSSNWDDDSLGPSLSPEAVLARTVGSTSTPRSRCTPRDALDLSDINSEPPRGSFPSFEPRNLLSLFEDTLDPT
pIC50: −log10 of the molar value.
property: pIC50

Reference set, count: 5
Cc1ccc(O)c(C)c1-c1nc(N2CC[C@@H](O)C2)cc2c(N)ncnc12 (single isomer, unassigned) = > 8.00
Cc1ccc(O)c(C)c1-c1nc(N2CCCC2)cc2c(N)ncnc12 (single isomer, unassigned) = > 8.00
Cc1cc2c(N)ncnc2c(-c2c(C)ccc(O)c2C)n1 = 7.00 to 8.00
Cc1ccc(O)c(C)c1-c1nc(-c2ccc(F)cc2F)cc2c(N)ncnc12 (single isomer, unassigned) = > 8.00
COC[C@H]1CCN(c2cc3c(N)ncnc3c(-c3c(C)ccc(O)c3C)n2)C1 (single isomer, unassigned) = > 8.00

Let us examine a further case.
Entry under test: Cc1ccc(O)c(C)c1-c1nc(CC(=O)N2CCOCC2)cc2c(N)ncnc12 (single isomer, unassigned) . Its pIC50 was 6.00 to 7.00
